# Papp A→B at 10 nM listing for each entry below
Assay: Drug transport across human CACO-2 cells
Assay type: in vitro ADME
Conditions: Caco-2 monolayers, apical-to-basal, pH 7.2, 37° C., read-out: PEAB
State the answer as a number, implicitly in ×10⁻⁶ cm/s.

molecule="N#Cc1ccc(C2C3=C(CCCC3=O)N(c3cccc(C(F)(F)F)c3)C(=O)N2C(=O)NCCO)cc1 (centres unmarked)" unitinfo="×10⁻⁶ cm/s" valuemeasured=12.8

Here is another molecule to look at.
GET /values?readout=Papp A→B at 10 nM&item= CN(C)CCNC(=O)N1C(=O)N(c2cccc(C(F)(F)F)c2)C2=C(C(=O)CCC2)C1c1ccc(C#N)cc1 (centres unmarked) 16.4
